system: HUVEC; test: Antiproliferative activity against HUVEC after 48 hrs by MTT assay; type: functional, cell-based; details: Homo sapiens
pIC50: −log10 of the molar value.
measured.quantity: pIC50

smiles.str | measured.quantity | result.number
COc1ccc(-c2nc(Cl)c(-c3ccccc3)c(Nc3ccc(OCCN4CCCC4)cc3)n2)cc1 | pIC50 | 5.30
COc1ccc(-c2nc(Cl)cc(Nc3ccc(NC(=O)CN4CCCC4)cc3)n2)cc1 | pIC50 | 5.32
COc1ccc(-c2nc(Cl)cc(Nc3ccc(OCCN(C)C)cc3)n2)cc1 | pIC50 | 5.20
COc1ccc(-c2nc(Cl)c(-c3ccccc3)c(Oc3ccc(OCCN4CCCC4)cc3)n2)cc1 | pIC50 | 4.97
COc1ccc(-c2nc(Cl)c(-c3ccccc3)c(Oc3ccc(OCCN(C)C)cc3)n2)cc1 | pIC50 | 4.93
